assay.overview: Quantitative High-Throughput drug screen in 47 multiple myeloma cell lines against the NCATS MIPE library collection: OPM1_PLB cell viability assay (AID 1918989); also: nearly all actives have a fitted effect of over 40% in size
recorded.conditions: CellTiter-Glo, 48 h; series mostly up to 45.8 µM
Results filed as inconclusive are left out. Active and inactive are the calls of the source. Calls follow the shape of the dose curve; as a rule, active = well fitted cell-killing curve with a large enough effect; inconclusive = small, poorly fitted or top-dose-only effect, or effect the other way; inactive = no such curve, though single readings can be large or run the other way.
Outcomes: active, inactive

test_smiles=Cc1ccc(-c2ncn(-c3ccc(Nc4nccc(-c5cccc(N6CCOCC6)c5)n4)cc3)n2)cn1 label=active
test_smiles=CCN(CC)CCNC(=O)c1ccc2nc(-c3ccccc3)c(-c3ccc(CN4CCC(n5c(=O)[nH]c6ccccc65)CC4)cc3)nc2c1 label=active
test_smiles=Cn1c2ccccc2c2c3c(c4c5ccccc5n(CCC#N)c4c21)CNC3=O label=active
test_smiles=O=C(O)CO.[NH2-].[NH2-].[Pt+2] label=inactive
test_smiles=Nc1cccc(-c2cc3c(Oc4cccc(O)c4)ncnc3[nH]2)c1 label=active

----------
System: MKL-1
assay.overview: qHTS assay to identify novel small-molecules to repurpose for Merkel cell carcinoma treatment (AID 1296009); also: nearly all actives have a fitted effect of over 60% in size
recorded.conditions: MCC and control cell lines, CellTiter-Glo viability, 72 h; series mostly up to 46 µM
Inconclusive results are not listed. The source made the active and inactive calls. The call rests on the fitted dose curve; in most records, active means well fitted inhibition curve with a large enough effect; inconclusive means small, poorly fitted or top-dose-only effect; inactive means flat fitted curve, though single readings scatter.
Outcomes: active, inactive

compound="Cn1c2cc(S(C)=O)sc2c2cnn(Cc3cccc(N)c3)c(=O)c21 (stereo not given)" label=inactive
compound=O=C(C=Cc1c(C(=O)O)[nH]c2cc(Cl)cc(Cl)c12)Nc1ccccc1 label=inactive
compound=CNC(=O)c1c(F)cccc1Nc1nc(Nc2cc3c(cc2OC)CCN3C(=O)CN(C)C)nc2[nH]ccc12 label=active
compound=Cc1ccc(S(=O)(=O)Nc2cc(Cl)ccc2C(=O)Nc2nc(-c3ccccc3)cs2)cc1 label=inactive
compound=COc1cc(Nc2ncc(F)c(Nc3ccc4c(n3)N(COP(=O)(O)O)C(=O)C(C)(C)O4)n2)cc(OC)c1OC label=inactive

----------
assay.overview: qHTS of pediatric cancer cell lines to identify multiple opportunities for drug repurposing: Confirmatory screen for MG 63 (6-TG R) cells (AID 1347119); also: nearly all actives have a fitted effect of over 55% in size
recorded.conditions: MG-63 (6-TG resistant) osteosarcoma viability; series mostly up to 45.9 µM
Records with an inconclusive call do not appear. Calls of active or inactive are those of the source. Calls come from the whole dose curve; as a rule, active = well fitted cell-killing curve with a large enough effect; inconclusive = small, poorly fitted or top-dose-only effect, or effect the other way; inactive = no such curve, though single readings can be large or run the other way.
Outcomes: y = active, n = inactive

test_smiles=CCn1nnc2c(N3CCOCC3)nc(-c3ccc(NC(=O)Nc4ccc(C(=O)N5CCN(C)CC5)cc4)cc3)nc21 label=y
test_smiles=CC[C@@]1(O)C(=O)OCc2c1cc1n(c2=O)Cc2cc3cc(O)ccc3nc2-1 label=y
test_smiles=Cc1c(Cn2c(C)nc3c(C(=O)O)cc(N4CCOCC4)cc32)cccc1C(F)(F)F label=n
test_smiles=O=C(C=Cc1cccc(S(=O)(=O)Nc2ccccc2)c1)NO label=y
test_smiles=CCCCc1nc2cc(C=CC(=O)NO)ccc2n1CCN(CC)CC label=y
test_smiles=Nc1ncnc2c1c(-c1cnc3[nH]ccc3c1)nn2C1CCCC1 label=y
test_smiles=CC=CC1=C(C(=O)O)N2C(=O)[C@H](NC(=O)[C@H](N)c3ccc(O)cc3)[C@@H]2SC1 label=n

----------
assay.overview: qHTS of pediatric cancer cell lines to identify multiple opportunities for drug repurposing: Confirmatory screen for OHS-50 cells (AID 1347128);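 also: compound exposure lasted 48 h at 37 degrees C; nearly all actives have a fitted effect of over 55% in size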
recorded.conditions: OHS-50 osteosarcoma cells viability; series mostly up to 45.9 µM
Experimental: Drug repurposing or repositioning has been offered as a strategy for drug development in oncology programs. […] [1] Shen, M et al. Quantitative high-throughput phenotypic screening of pediatric cancer cell lines identifies multiple opportunities for drug repurposing. […] Cells were assayed in growth media at a density of 500-1,000 cells/well. […] After a 15 min incubation at room temperature, samples were analyzed for luminescence intensity using a ViewLux High-throughput CCD imager equipped with clear filters.
Results filed as inconclusive are left out. Active and inactive are the calls of the source. The call rests on the fitted dose curve; in most records, active means well fitted cell-killing curve with a large enough effect; inconclusive means small, poorly fitted or top-dose-only effect, or effect the other way; inactive means no such curve, though single readings can be large or run the other way.
Outcomes: 1 (yes) = active, 0 (no) = inactive

compound=Cc1cn2c(-c3cn[nH]c3)cnc2c(Nc2ccc(C(=O)N3CCNCC3)cc2F)n1 label="1 (yes)"
compound=C=CC(=O)Nc1cccc(Oc2nc(Nc3ccc(N4CCN(C)CC4)cc3)ncc2Cl)c1 label="1 (yes)"
compound="CC(NCc1ccc2c(c1)nc(NC(=O)c1ccc(-c3cn[nH]c3)s1)n2CC(C)(C)O)C(C)(C)C (stereo not drawn)" label="1 (yes)"
compound=CNC(=O)c1nn(C)c2c1C(C)(C)Cc1cnc(Nc3ccc(N4CCN(C)CC4)cc3)nc1-2 label="1 (yes)"
compound=CS(=O)(=O)N1CCN(Cc2cc3nc(-c4cccc5[nH]ncc45)nc(N4CCOCC4)c3s2)CC1 label="1 (yes)"
compound=CN1CCN(c2cc(C(=O)Nc3ccc4c(c3)-c3c(c(C(N)=O)nn3-c3ccc(F)cc3)CC4)c(Cl)cn2)CC1 label="1 (yes)"
compound=Cc1c(C)n(Cc2ccc(-c3ccccc3C(=O)O)cc2)c2ccc(C(=O)N[C@@H](C)c3ccc([N+](=O)[O-])cc3)cc12 label="0 (no)"
compound=O=C(NC1CCNCC1)c1[nH]ncc1NC(=O)c1c(Cl)cccc1Cl label="1 (yes)"

----------
assay.overview: Quantitative High-Throughput drug screen in 47 multiple myeloma cell lines against the NCATS MIPE library collection: KMS11_JCRBsus cell viability assay (AID 1919873); also: nearly all actives have a fitted effect of over 50% in size
recorded.conditions: KMS11 myeloma viability, CellTiter-Glo ATP luminescence, 48 h; series mostly up to 45.8 µM
Results filed as inconclusive are left out. Activity calls are given as the source filed them. Calls come from the whole dose curve; as a rule, active = well fitted cell-killing curve with a large enough effect; inconclusive = small, poorly fitted or top-dose-only effect, or effect the other way; inactive = no such curve, though single readings can be large or run the other way.
Outcomes: active, inactive

compound="CC[C@@H]1C(=O)N(C)c2cnc(Nc3ccc(C(=O)NC4CCC(N5CCN(CC6CC6)CC5)CC4)cc3OC)nc2N1C(C)C (stereo not given in full)" label=active
compound=Cc1ccc(C(=O)Nc2ccc(CN3CCN(C)CC3)c(C(F)(F)F)c2)cc1C#Cc1cnc2cccnn12 label=active
compound=CC(=O)Nc1sc2c(c1-c1nc3ccccc3s1)CNC2 label=active
compound=Cc1nc2ccc(CN(C)c3ccc(C(=O)N[C@@H](CCC(=O)O)C(=O)O)s3)cc2c(=O)[nH]1 label=active
compound=CC(C)c1noc(N2CCC(COc3ccc(-c4ccc(S(C)(=O)=O)cc4)nc3)CC2)n1 label=active
compound=Nc1cccc(-c2cc3c(Oc4cccc(O)c4)ncnc3[nH]2)c1 label=active
compound=C[C@@H](Oc1cc(-c2cnn(C3CCNCC3)c2)cnc1N)c1c(Cl)ccc(F)c1Cl label=active
compound=O=C(O)Cn1nnc(-c2cc(N3CCC(Oc4cc(F)ccc4Br)CC3)no2)n1 label=inactive
compound=COc1cccc2nc(-c3cccs3)nc(NN3C(=O)C=C(C)C3=O)c12 label=active
compound=CN1CC[C@@H](c2c(O)cc(O)c3c(=O)cc(-c4ccccc4Cl)oc23)[C@@H](O)C1 label=active
compound=OCCCNc1cc(-c2ccnc(Nc3cccc(Cl)c3)n2)ccn1 label=active
compound=C[C@H]1C[C@@H]2[C@@H]([C@@H](O)C[C@@]3(C)[C@H]2CC[C@]3(O)C(=O)CO)[C@@]2(C)C=CC(=O)C=C12 label=active
compound=O=C(O)c1ccc2c(c1)nc(Nc1cccc(Cl)c1)c1ccncc12 label=active
compound=Cc1cc(Nc2cc(N3CCN(C)CC3)nc(C=Cc3ccccc3)n2)n[nH]1 label=active
compound=Nc1ccc(S(=O)(=O)Nc2ncccn2)cc1 label=inactive
compound=Nc1ccn([C@@H]2O[C@H](CO)[C@H](O)C2(F)F)c(=O)n1 label=active
compound=Nc1ccc(C(=O)c2cc3c(ccc4ccccc43)[nH]2)cc1 label=active
compound=COc1ccc(F)c(F)c1C(=O)c1cnc(NC2CCN(S(C)(=O)=O)CC2)nc1N label=active
compound=N#Cc1c(O)c2c(-c3ccc(-c4ccccc4O)cc3)csc2[nH]c1=O label=inactive
compound="CN1c2cc(O)c(N=NC(N)=O)cc2CC1S(=O)(=O)O (stereo not given)" label=inactive

----------
assay.overview: qHTS Screen of the MIPE 4.0 Collection Against Ewings Sarcoma (TC32) (AID 1259256); also: nearly all actives have a fitted effect of over 45% in size
recorded.conditions: TC32 Ewing sarcoma viability, CellTiter-Glo, 48 h; series mostly up to 45.8 µM
Results filed as inconclusive are left out. Activity calls are given as the source filed them. Calls follow the shape of the dose curve; as a rule, active = well fitted inhibition curve with a large enough effect; inconclusive = small, poorly fitted or top-dose-only effect; inactive = no such curve, though single readings can be large or run the other way.
Outcomes: t for active, f for inactive

compound=Nc1nc(-c2nn(Cc3ccccc3F)c3ncccc23)nc(N)c1N1CCOCC1 label=f
compound=NC(=O)Nc1cc(-c2cccc(F)c2)sc1C(=O)N[C@H]1CCCNC1 label=t
compound=O=C(O)Cn1nnc(-c2cc(N3CCC(Oc4cc(F)ccc4Br)CC3)no2)n1 label=f
compound=CC1(C)CCC(c2ccc(Cl)cc2)=C(CN2CCN(c3ccc(C(=O)NS(=O)(=O)c4ccc(N[C@H](CCN5CCOCC5)CSc5ccccc5)c(S(=O)(=O)C(F)(F)F)c4)cc3)CC2)C1 label=t
compound=NC(=O)c1c(OCc2c(F)cc(Br)cc2F)nsc1NC(=O)NCCCCN1CCCC1 label=t
compound=CCS(=O)(=O)c1cccc(-c2cc(C(=O)NC3CCN(C)CC3)c(C)c3[nH]c4ncc(C)cc4c23)c1 label=t
compound=CS(=O)(=O)N1CCN(Cc2cc3nc(-c4cccc5[nH]ncc45)nc(N4CCOCC4)c3s2)CC1 label=t
compound="Cn1c2cc(S(C)=O)sc2c2cnn(Cc3cccc(N)c3)c(=O)c21 (centres undefined)" label=f
compound=CC=CC1=C(C(=O)O)N2C(=O)[C@H](NC(=O)[C@H](N)c3ccc(O)cc3)[C@@H]2SC1 label=f

The reported measurements were obtained from PubChem BioAssay (NCATS).
